Measured values drawn from PubChem BioAssay (NCI) for this set.

Assign TGI to each entry below.
Test system: UACC-257 melanoma
Experiment: NCI tumour cell line growth inhibition, 48 h
Give bare numbers, in µM.

Worked examples follow.
Challenge: Request the reported TGI associated with "CC1=NN(C(=O)CSc2nc3ccc(I)cc3c(=O)n2Cc2ccccc2)C(=O)C1"
Response given: 85.4

Challenge: Record request: TGI value, item "O=C(Nc1cccc(F)c1)c1cc2ccc(O)cc2oc1=Nc1ccccc1F"
Response given: 31.1

Challenge: Sample "O=C(Oc1cccnc1)c1ccsc1Nc1ccnc(C(F)(F)F)c1" — what was its TGI?
Response given: 23.4

Challenge: Fill blank: measured TGI of the compound CCN1C(=O)N(CC)C2C1NN=c1s/c(=C\c3ccccc3Br)c(=O)n12 (stereo not given) is ____.
Response given: 33.3

Challenge: Given the entry "CSC(=S)N/N=C(\C)c1cccc(C)n1" , report its measured TGI.
Response given: 21.9

Now for the compound whose TGI we want.
Challenge: // TGI lookup, key: "BrCc1ccc(CBr)cc1"
Response given: 38.9

====

Tested on: HOP-92 NSCLC
Assay: NCI tumour cell line growth inhibition, 48 h
Assign TGI to each entry below.

For orientation, consider the following solved cases.
Challenge: Lab note: need TGI with HOP-92 NSCLC for entry "O=C1NC(=O)C(c2cccc(Cl)c2)=C1Nc1ccc(O)c(Cl)c1" , please look it up.
Response given: > 25 µM

Challenge: So what TGI did "CCOc1ccc(-n2nnc3c(N)nc(N)nc32)cc1" get with HOP-92 NSCLC?
Response given: > 100 µM

Challenge: API: value(readout=TGI, system=HOP-92 NSCLC) for record "O=C1C[C@@H](c2ccccc2)O[C@@H](c2ccccc2)C1"
Response given: > 100 µM

Working through the 6 compounds below one at a time, give TGI for each.
1. COc1ccc2oc(=N)c(C(=O)Nc3ccccn3)cc2c1
2. Cc1ccc2c(=O)cc(-c3ccc(-c4ccccc4)s3)[nH]c2n1
3. CC1OC(OC2C(OC(=O)[C@@H]3CC(C)(C)C[C@H]4C5=CC[C@@H]6[C@@]7(C)C[C@H](O)[C@H](OC8OC(CO)C(O)C(O)C8O)[C@@](C)(CO)[C@@H]7[C@H](O)C[C@@]6(C)[C@]5(C)CC[C@@]34C)OCC(O)C2O)C(O)C(O)C1O (stereo partly specified)
4. N/N=C1\CC(=O)NC(=O)N1
5. O=C(CC(=O)Nc1ccccc1)N/N=C/c1cc(N=Nc2ccc(Br)cc2)ccc1O
6. CC1(C)OCC(C(O)C2OC(C)(C)OC2/C=N\O)O1 (stereo unspecified)

Response given:
1. > 100 µM
2. > 85.6 µM
3. > 7.5 µM
4. > 100 µM
5. > 10 µM
6. > 100 µM

// each compound listed below needs its TGI
1. COc1cc2c(c(OC)c1OC)-c1ccc(SC)c(=O)cc1[C@@H](NC1OC(CO)C(O)C(O)C1O)CC2 (stereo partly specified)
2. COC(=O)c1cnn2c1n[n+]([O-])c1ccccc12

Response given:
["> 57.9 µM", "> 100 µM"]

====

Test system: BT-549 breast
Test: NCI tumour cell line growth inhibition, 48 h
Hi there, I'd appreciate the recorded GI50 for every entry that follows.

// below: answered compounds
Challenge: May I ask what GI50 has been recorded for "O=[N+]([O-])c1cc(S(=O)(=O)Oc2ccccc2)ccc1Cl" ?
Response given: 5430 nM

Challenge: Sample "COc1ccc(C(=O)N2c3ccccc3Sc3ccccc32)c(OC)c1" — what was its GI50?
Response given: 659 nM

Challenge: Given the compound "CC(=O)c1c(C(F)(F)F)n([O-])c2ccc(C)cc2[n+]1=O" , what is its reported GI50?
Response given: 2540 nM

Challenge: May I ask what GI50 has been recorded for "CC1(C)N=C(N)N=C(N)N1c1ccc(CCCCc2ccc(S(=O)(=O)F)cc2)c(Cl)c1" ?
Response given: 9610 nM

Challenge: Need GI50, item "CN1CCN(Cc2ccc(NC(=O)c3[nH]ncc3Nc3ncnc4sc5c(c34)CCCC5)cc2)CC1"
Response given: 1230 nM

Continuing:
Challenge: Would you mind telling me what GI50 value was observed for "CC(C)(C)c1ccc(C(=O)Nc2sc3c(c2C(N)=O)CCC(=O)C3)cc1" ?
Response given: 356 nM
